Reference for the values: paper PMC8126888

Measured CC50 of individual entries
ASSAY OVERVIEW: in vitro
EXPERIMENTAL CONTEXT: human, HFF-1 cells
Write down the numeric answer in µM and omit the unit.

CN(C)c1ncccc1S(=O)(=O)N(Cc1ccc(F)cc1)Cc1ccc(F)cc1 [DNDI0003389117] :: 16.7

Please look at this molecule and report its CC50: COc1ccc(CN(Cc2ccc(F)cc2)S(=O)(=O)c2cc(C#N)ccc2OC)cc1 [DNDI0003371172] 22.6

* * *

Measured log10 solubility kinetic of individual entries
ASSAY OVERVIEW: physchem
EXPERIMENTAL CONTEXT: PBS, pH 7.4, aqueous buffer, kinetic from dmso stock
The base-10 logarithm of solubility kinetic, taken with solubility kinetic in µg/mL, is what appears here.

COc1ccc(C(=O)N2CCOCC2)cc1S(=O)(=O)N(Cc1ccc(F)cc1)Cc1ccc(C(F)(F)F)nc1 :: 0.52
CCCCCOc1cc(C)c(C)cc1S(=O)(=O)NC1CCCC1 :: -0.25
CCCCCOc1cc(C)c(Cl)cc1S(=O)(=O)NCc1cccs1 :: -0.41

Please look at this compound and report its log10 solubility kinetic: COc1ccc(C(=O)N2CCOCC2)cc1S(=O)(=O)N(Cc1ccccc1)Cc1cnc(C(F)(F)F)nc1 0.79

Please look at this compound and report its log10 solubility kinetic: COc1cc(S(=O)(=O)N(Cc2ccccc2)Cc2ccccc2)c(OC)cc1C -0.39
